FYI, the data here is from ChEMBL document CHEMBL4680120.

fold change (FC) by entry:
Test method notes: Stability in simulated intestinal fluid at pH 6.8 assessed as relative difference measured after 15 mins in presence of pancreatin by HPLC analysis
Assay type: ADME
Applied conditions: simulated gi fluid, pH 6.8, 0.25 h
# value in %; strip the unit string

- Compound: "O=C(CCCCC1CCSS1)NCCCNC(=O)Cc1ccc(O)c(O)c1 (stereo not given)"
  fold change (FC), %: 5.6
- Compound: "COc1ccc(/C=C/C(=O)OCCOCCNC(=O)CCCCC2CCSS2)cc1OC (stereo not given)"
  fold change (FC), %: 12.01
- Compound: "COc1cc(/C=C/C(=O)NCCNC(=O)CCCCC2CCSS2)ccc1O (stereo not given)"
  fold change (FC), %: 2.52

The reported fold change (FC) of the compound COc1cc(/C=C/C(=O)NCCCNC(=O)CCCCC2CCSS2)ccc1O (stereo not given) was 0.54

The reported fold change (FC) of the compound O=C(CCCCC1CCSS1)NCCOCCOC(=O)Cc1ccc(O)c(O)c1 (stereo not given) was 3.87

The reported fold change (FC) of the compound COc1ccc(/C=C/C(=O)NCCCCNC(=O)CCCCC2CCSS2)cc1OC (stereo not given) was 3

The reported fold change (FC) of the compound O=C(CCCCC1CCSS1)NCCOC(=O)Cc1ccc(O)c(O)c1 (stereo not given) was 2.5
